tested on: UACC-62; assay: NCI tumour cell line growth inhibition, 48 h
The source made the active and inactive calls. No stated cut-off is given here; in the data, active = GI50 up to about 1.1 µM and inactive = higher.
Hi! Could you answer with just one of these? active, inactive

# compound, class.assignment
data = [
    ("Cc1cc(=O)oc2cc(OCc3nc4ccccc4c(=O)n3-c3ccccc3)ccc12", "inactive"),
]

*Q* # lookup: test call for O=C(O)CC(Cc1ccc2c(c1)OCO2)C(=O)O (stereo not drawn)
*A* inactive

*Q* Now try CCN1C[C@]2(C)CC[C@H](OCc3ccccc3)C34C5C[C@@H]6CC[C@](O)(C(C[C@@H]32)C14)C5[C@H]6OCc1ccccc1 (stereo partly drawn) .
*A* inactive

*Q* Now try "CC(C)(C)n1nc(C2CC2)cc1NC(=O)Nc1ccc(Cl)cc1" .
*A* inactive

*Q* Now try "CC(C)c1cc2c(c(O)c1O)[C@@]1(C)CCCC(C)(C)C1=C(O)C2" .
*A* inactive

*Q* Now try "O=C1Nc2ccccc2/C1=N/NC(=O)C(O)(c1ccccc1)c1ccccc1" .
*A* inactive

*Q* Now try O=C(Cc1ccccc1)N/N=C(/c1nc2ccc([N+](=O)[O-])cc2nc1O)C(O)c1ccco1 (stereo not drawn) .
*A* inactive

*Q* Now try "COc1cc2c(NCCN(C)C)nc3c4cc5c(cc4ccc3c2cc1OC)OCO5" .
*A* inactive

###

test system: OVCAR-5; assay: NCI tumour cell line growth inhibition, 48 h
The source made the active and inactive calls. Cut-off read from the data, not from the text of the source: active = GI50 up to about 1.1 µM and inactive = higher.
Hi! Could you answer with just one of these? Y (active), N (inactive)

Some entries whose results are on file:
# molecule, class.assignment
measured = [
    ("O=[N+]([O-])c1ccc(NN=C2c3ccccc3Cc3ccccc32)c([N+](=O)[O-])c1", "N"),
    ("CCN1C[C@]2(C)CC[C@H](OCc3ccccc3)C34C5C[C@@H]6CC[C@](O)(C(C[C@@H]32)C14)C5[C@H]6OCc1ccccc1 (stereo partly specified)", "N"),
    ("COC(=O)C12C(=O)O[C@H](C)C1(O)C(C)C(=O)N2C (stereo partly specified)", "N"),
]

*Q* # lookup: test call for "Oc1ccc[n+](Cc2ccccc2)c1"
*A* N

*Q* Now try "COC(=O)c1cc(/C=C2\Cc3cc4c(cc3C2=O)CCC4)cc2c1CCC2" .
*A* N

*Q* Now try "CCOC(=O)c1sc2nc(SC)nc3c2c1NCN3C1CC1" .
*A* N

*Q* Now try "O=c1ccn2n1Cc1ccccc1C2" .
*A* N

*Q* Now try O=C1C2C3C=CC(C2C(=O)N1CN1CCSCC1)C1C2C(=O)N(CN4CCSCC4)C(=O)C2C31 (stereo unspecified) .
*A* N

*Q* Now try "Cc1c(-c2ccccc2)c(-c2ccc(OCCN(C)C)cc2)n2ccccc12" .
*A* N

*Q* Now try "O=C1C(Cl)=C(NCCN2CCOCC2)C(=O)c2c(O)ccc(O)c21" .
*A* Y

*Q* Now try "O=C(Nc1ccc(Cl)c(Cl)c1)C(=O)Nn1c(S)nc2ccccc2c1=O" .
*A* N

###

system: HT-29; assay: NCI tumour cell line growth inhibition, 48 h
Active and inactive are the calls of the source. Rule as the data show it: active = GI50 up to about 1.1 µM and inactive = higher.
measurement.name: GI50

# compound, system.name, GI50
data = [
    ("C[N+]1(CCCl)CC[N+](C)(CCCl)CC1 (stereo unspecified)", "HT-29", "> 100 µM (inactive)"),
]

Value sought for every listed compound: GI50.
1. Cc1ccc2nc(-c3ccc(N)c(Br)c3)sc2c1
2. CC(=O)N1CCN(C23OC4(N5CCN(C(C)=O)CC5)C5C6CC(C7C6C4C72)C53)CC1 (stereo unspecified)

*A*
40.7 µM (inactive)
> 100 µM (inactive)

Value sought for every listed compound: GI50.
1. C=CCC1=C(C)C[C@@H]2CCC(=O)C=C12
2. CN(C)CCNC1=C(Cl)C(=O)c2c(O)ccc(O)c2C1=O
3. CCN(CC)CC(C(=O)Nc1c(C)cccc1C)/C(C)=N\NC(=O)C[N+](C)(C)C (stereo unspecified)

*A*
1. > 100 µM (inactive)
2. 1.85 µM (inactive)
3. > 100 µM (inactive)

###

system: MDA-N; assay: NCI tumour cell line growth inhibition, 48 h
The source made the active and inactive calls. Rule as the data show it: active = GI50 up to about 1.1 µM and inactive = higher.
Hi! Could you answer with just one of these? true for active, false for inactive

Some entries whose results are on file:
# compound, class.assignment
rows = [
    ("Cc1c2ccccc2nc2[nH]c3ccncc3c12", "false"),
    ("CCOC1NC(=O)Oc2ccccc21 (stereo not given)", "false"),
    ("CC(=O)NC1C(OCc2ccccc2)OC(CO)C(O)C1OCC(=O)N1CCCC1C(=O)N[C@@H](CCC(=O)NCCNCCNc1c2ccccc2nc2cccc([N+](=O)[O-])c12)C(N)=O (stereo not given in full)", "false"),
    ("CN(c1ccccc1)S(=O)(=O)c1ccccc1[N+](=O)[O-]", "false"),
    ("CCOc1ccncc1[N+](=O)[O-]", "false"),
    ("CC(=O)Nc1cccc(N2C(=O)/C(=C\\c3cccc(Oc4ccccc4)c3)S(=O)(=O)C2c2ccccc2)c1 (stereo not given)", "false"),
]

*Q* # lookup: test call for "C/C(=N\NC(=S)N1CCCCC1)c1nc2cccnc2[nH]1"
*A* false

*Q* Now try BrC1(c2ccccc2)C[n+]2c(-c3ccccc3)cc(-c3ccccc3)cc2-c2ccccc21 (stereo not given) .
*A* true

*Q* Now try O=C(NCCC(F)(F)C(F)(F)C(F)(F)C(F)(F)F)NC1OC(CO)C(O)C(O)C1O (stereo not given) .
*A* false

*Q* Now try COP(C)(=O)C(Cc1c[nH]c2ccccc12)NC(=O)OCc1ccccc1 (stereo not given) .
*A* false

###

tested on: Hs-578T; assay: NCI tumour cell line growth inhibition, 48 h
Activity calls are given as the source filed them. Cut-off read from the data, not from the text of the source: active = GI50 up to about 1.1 µM and inactive = higher.
measurement.name: GI50

Illustrative cases are given below, each with its answer.
# molecule, GI50
rows = [
    ("O=C1NC(N2CCCCC2)=N/C1=C\\c1ccc(Cl)cc1", "28.5 µM (inactive)"),
    ("O=C(CSc1nnc(-c2ccccn2)s1)N/N=C/c1ccc([N+](=O)[O-])cc1", "32.1 µM (inactive)"),
    ("CNC(C#N)c1ccc(OC)cc1 (configuration not stated)", "> 100 µM (inactive)"),
    ("Nc1ccc(-c2nc3cc(F)ccc3s2)cc1CO", "34.4 µM (inactive)"),
    ("O=C(/C=C/c1ccc2c(c1)OCO2)NCCc1ccco1", "65.3 µM (inactive)"),
    ("CN1CCC2(CC1)C(=O)N(N1CCCCCC1)C(=O)N2c1ccccc1", "42.2 µM (inactive)"),
    ("O=C(/N=N/c1ccc(Br)cc1)NNc1ccc(Br)cc1", "> 10 µM (inactive)"),
    ("CCC(O)(Cc1ccc(OC)cc1)c1ccc(OC)cc1 (configuration not stated)", "> 100 µM (inactive)"),
]

Value sought for every listed molecule: GI50.
1. O=C(O)c1cc2cc(c1)/N=C/c1ccccc1OCc1cccc(n1)COc1ccccc1/C=N/2
2. COC1/C=C/OC2(C)Oc3c(C)c(O)c4c(c3C2=O)C(=O)C=C(NC(=O)/C(C)=C\C=C\C(C)C(OC=O)C(C)C(O)C(C)C(OC(C)=O)C1C)C4=O (configuration not stated)
3. CCOC(=O)/C=C(\N=P(c1ccccc1)(c1ccccc1)c1ccccc1)C(F)(F)C(F)(F)C(F)(F)C(F)(F)C(F)(F)F
4. O=S(=O)(O)c1c(/N=N/c2c(O)ccc3ccccc23)ccc2ccccc12
5. c1ccc2c(Nc3ncco3)cccc2c1
6. N=C(N)NS(=O)(=O)c1ccc(NC(=O)c2ccc3nc4ccccc4c(N)c3c2)cc1
7. CCN(CC)C1CCC(C2c3cc4c(cc3OC(N3CCOCC3)C2C)OCO4)CC1 (configuration not stated)

*A*
1: 4.94 µM (inactive); 2: 15.2 µM (inactive); 3: > 100 µM (inactive); 4: > 100 µM (inactive); 5: > 10 µM (inactive); 6: > 100 µM (inactive); 7: 28.7 µM (inactive)

Value sought for every listed molecule: GI50.
1. COC(=O)C#CC1(O)C=CC(=O)C=C1
2. CCOC(=O)NC(Nc1c(F)c(F)c(F)c(F)c1F)(C(F)(F)F)C(F)(F)F
3. N=c1oc2ccc(Cl)cc2cc1C(N)=O
4. O=C1C(Cl)=C(NCCN2CCOCC2)C(=O)c2c(O)ccc(O)c21
5. N=c1c2ccccc2nc2oc3cc([N+](=O)[O-])ccc3n12

*A*
2.79 µM (inactive)
> 100 µM (inactive)
18.5 µM (inactive)
3.13 µM (inactive)
4.23 µM (inactive)

Value sought for every listed molecule: GI50.
1. Cc1c2ccccc2c(C)n2c1nc1cc3ccccc3cc12
2. CCOC1NC(=O)Oc2ccccc21 (configuration not stated)

*A*
1.25 µM (inactive)
> 100 µM (inactive)
